studySystem: PYL1-HAB1 (Arabidopsis thaliana)
Construct: 6xHis (N); made in house; host or cells: E. coli BL21[DE3]pLysS (stated for GST-HAB1)
Sequence (Q8VZS8 whole entry): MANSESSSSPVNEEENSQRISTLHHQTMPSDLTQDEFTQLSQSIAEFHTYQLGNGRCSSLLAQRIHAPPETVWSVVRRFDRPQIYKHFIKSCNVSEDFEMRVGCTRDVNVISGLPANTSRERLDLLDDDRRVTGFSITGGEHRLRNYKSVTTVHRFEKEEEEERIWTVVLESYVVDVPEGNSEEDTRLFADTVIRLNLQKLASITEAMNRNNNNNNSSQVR
Sequence (Q9CAJ0 23-511 partner): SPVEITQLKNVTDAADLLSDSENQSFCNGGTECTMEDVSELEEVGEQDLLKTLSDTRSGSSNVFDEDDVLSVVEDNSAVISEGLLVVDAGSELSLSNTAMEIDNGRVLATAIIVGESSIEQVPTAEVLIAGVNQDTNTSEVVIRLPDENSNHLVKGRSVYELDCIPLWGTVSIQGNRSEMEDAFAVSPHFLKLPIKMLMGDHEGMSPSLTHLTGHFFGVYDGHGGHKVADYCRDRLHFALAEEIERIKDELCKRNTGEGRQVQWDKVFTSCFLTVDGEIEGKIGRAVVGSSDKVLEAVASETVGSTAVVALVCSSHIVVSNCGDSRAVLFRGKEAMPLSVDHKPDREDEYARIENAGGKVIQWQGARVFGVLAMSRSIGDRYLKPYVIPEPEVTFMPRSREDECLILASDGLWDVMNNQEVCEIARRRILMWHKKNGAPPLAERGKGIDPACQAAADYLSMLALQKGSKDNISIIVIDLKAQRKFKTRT
assayProcedure: PP2C activity assay, PYL1-HAB1 inhibition
Format: biochemical
assayConditions: 200 nM test compound, 100 nM HAB1 PP2C, 200 nM receptor; read-out: % Inhibition of PYR/PYL-HAB1 at 200 nM: PYL1
quantityMeasured: activity at 0.2 µM (%)

Reference set, count: 5
| structureSmiles | activity at 0.2 µM (%) |
| --- | --- |
| CCCN1C(=O)CCc2cc(NS(=O)(=O)Cc3cccc(Br)c3)cc(F)c21 | 85.7 |
| CCCN1C(=O)CCc2cc(NS(=O)(=O)Cc3cccc(Cl)c3)cc(F)c21 | 79.8 |
| CCCN1C(=O)CCc2cc(NS(=O)(=O)Cc3ccc(C)cc3)ccc21 | 23 |
| CCCN1C(=O)CCc2cc(NS(=O)(=O)Cc3ccccc3Br)cc(F)c21 | 84.7 |
| CCCN1C(=O)CCc2cc(NS(=O)(=O)Cc3cc(F)ccc3F)cc(F)c21 | 35.1 |

(I) CCCN1C(=O)CCc2cc(NS(=O)(=O)Cc3ccc(F)cc3Br)cc(F)c21
(II) CCCN1C(=O)CCc2cc(NS(=O)(=O)Cc3ccc(C)cc3)cc(F)c21
(III) CCCN1C(=O)CCc2cc(NS(=O)(=O)Cc3ccc(C#N)cc3)cc(F)c21
(IV) CCCN1C(=O)CCc2cc(NS(=O)(=O)Cc3ccc(Br)cc3)cc(F)c21
Order by activity at 0.2 µM, ascending. Hello, could you send the labels back in the order asked? Thank you. II, IV, III, I
(II: 11.8%, IV: 20.8%, III: 44.3%, I: 87.4%)

====

studySystem: PYL2-HAB1 (Arabidopsis thaliana)
Construct: 6xHis (N); made in house; host or cells: E. coli BL21[DE3]pLysS (stated for GST-HAB1)
Sequence (O80992 whole entry): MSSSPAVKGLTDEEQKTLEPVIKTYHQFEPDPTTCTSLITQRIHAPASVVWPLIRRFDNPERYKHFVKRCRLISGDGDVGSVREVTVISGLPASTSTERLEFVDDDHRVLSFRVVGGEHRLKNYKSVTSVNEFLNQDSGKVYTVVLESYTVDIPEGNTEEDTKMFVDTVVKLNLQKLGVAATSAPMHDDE
Sequence (Q9CAJ0 23-511 partner): as the sequence (Q9CAJ0 23-511 partner) above
assayProcedure: PP2C activity assay, PYL2-HAB1 inhibition
Assay type: biochemical
assayConditions: dose response in triplicate, non-linear regression
quantityMeasured: IC50 (nM)

| compound | studySystem | IC50, nM |
| --- | --- | --- |
| CCN1C(=O)CC(C)c2cc(NS(=O)(=O)Cc3ccc(C)cc3C)cc(F)c21 (stereo not drawn) [HQ51] | PYL2-HAB1 (Arabidopsis thaliana) | 930 |

(a) C=CCN1C(=O)CC(C)c2cc(NS(=O)(=O)Cc3ccc(COC)cc3)cc(F)c21 (stereo not drawn) [HQ36]
(b) CCN1C(=O)CC(C)c2cc(NS(=O)(=O)c3ccccc3)cc(F)c21 (stereo not drawn) [HQ45]
In the pair a and b , the larger recorded IC50 belongs to which? Reply with the label of the item you choose. b

====

studySystem: PYL1-HAB1 (Arabidopsis thaliana)
Construct: 6xHis (N); made in house; host or cells: E. coli BL21[DE3]pLysS (stated for GST-HAB1)
assayProcedure: PP2C activity assay, PYL1-HAB1 inhibition
Type: biochemical
assayConditions: 200 nM test compound, 100 nM HAB1 PP2C, 200 nM receptor; read-out: % Inhibition of PYR/PYL-HAB1 at 200 nM: PYL1
quantityMeasured: activity at 0.2 µM (%)

(1) CCCN1C(=O)CCc2cc(NS(=O)(=O)Cc3ccc(C(F)(F)F)nc3)cc(F)c21
(2) CCCN1C(=O)CCc2cc(NS(=O)(=O)Cc3ccc(F)cc3F)cc(F)c21
Lower value for measured activity at 0.2 µM? Options: 1 , 2 API: response body contains the label of the selected item. 2
